- Protocol notes: Cytotoxicity in mouse peritoneal macrophages
- Type: cell-based, BALB/c mice
- Applied conditions: BALB/c, Macrophages CC50 + SD, resazurin
Attribute measured: CC50 at 48 h

(Q) Retrieve CC50 at 48 h measured for C[C@@H]1[C@H](O)[C@@H](C)/C=C/C=C/C=C/C=C/C=C/C=C/C=C/[C@H](O[C@@H]2O[C@H](C)[C@@H](O)[C@H](N)[C@@H]2O)C[C@@H]2O[C@](O)(C[C@@H](O)C[C@@H](O)[C@H](O)CC[C@@H](O)C[C@@H](O)CC(=O)O[C@H]1C)C[C@H](O)[C@H]2C(=O)O and print it.
(A) 5.8 µM
